Values compiled from ChEMBL document CHEMBL2176955.

# systemName: Cyclin-dependent kinase 2/cyclin A (Homo sapiens)
# measurementDescription: Inhibition of recombinant CDK2/Cyclin A using RbinG as substrate after 2 hrs by luminescence assay
Please respond with 1 when measured IC50 is strictly beneath 3 µM, and with 0 in all other cases.

compound: CC(=O)N1CCN(c2ccc3cc2COCC=CCOCc2cccc(c2)-c2ccnc(n2)N3)CC1 (mixture of isomers)
discreteLabel: 0
--
compound: Fc1cc2cc(c1)-c1ccnc(n1)Nc1ccc(OCCN3CCCC3)c(c1)COCC=CCOC2 (mixture of isomers)
discreteLabel: 1
--
compound: COc1ccc2cc1COCC=CCOCc1cc(ccc1OCCN1CCCC1)Nc1nccc-2n1 (mixture of isomers)
discreteLabel: 0
--
compound: Fc1ccc2cc1COCC=CCOCc1cc(ccc1OCCN1CCCC1)Nc1nccc-2n1 (mixture of isomers)
discreteLabel: 0
--
compound: Oc1ccc2cc1COCC=CCOCc1cccc(c1)-c1ccnc(n1)N2 (mixture of isomers)
discreteLabel: 1
--
compound: C1=CCOCc2cc(ccc2N2CCNCC2)Nc2nccc(n2)-c2cccc(c2)COC1 (mixture of isomers)
discreteLabel: 0
--
compound: CN(C)CCN(C)c1ccc2cc1COCC=CCOCc1cccc(c1)-c1ccnc(n1)N2 (mixture of isomers)
discreteLabel: 1
--
compound: O=C1CCN(CCOc2ccc3cc2COCC=CCOCc2cccc(c2)-c2ccnc(n2)N3)C1 (mixture of isomers)
discreteLabel: 0
